Target entity: Hmlalpha2 (UniProt P0CY09)
Sequence: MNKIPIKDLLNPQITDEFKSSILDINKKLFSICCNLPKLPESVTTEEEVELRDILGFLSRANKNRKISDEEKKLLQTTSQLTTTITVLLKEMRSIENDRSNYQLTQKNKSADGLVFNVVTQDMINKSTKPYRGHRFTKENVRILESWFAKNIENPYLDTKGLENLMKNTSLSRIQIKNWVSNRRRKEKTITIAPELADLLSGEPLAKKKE
Experiment: PBM E-score (8-mer binding enrichment) (E-score (-0.5 to 0.5)); higher = stronger / more preferred TF binding
Measurement conditions: protein concentration: 200 nM; construct: GST-full length
Whole data set: some 33,000 sequences, median “E-score (-0.5 to 0.5)” near -0.04, cut for the highest 2% near 0.36. The sample as a whole holds a higher share of the highest values than the screen did.
Provide the recorded PBM E-score for the entries that follow.

### Prompt So what's the measured PBM E-score for this one? AGCCACCG
### Response -0.248

### Prompt What about GTTGCACA ?
### Response 0.0871

### Prompt What about AATGTGTA ?
### Response 0.371

### Prompt What about AATGTGTG ?
### Response 0.0802

### Prompt What about GATGTGCA ?
### Response -0.091

### Prompt What about ACATGAAG ?
### Response 0.338

### Prompt What about CTCTGTAA ?
### Response 0.195

### Prompt What about ACATGAAC ?
### Response 0.366

### Prompt What about ATACGCCA ?
### Response -0.109

### Prompt What about ATACTGGA ?
### Response 0.0598

### Prompt What about CTCGAACA ?
### Response 0.112

### Prompt What about CCGGCGGA ?
### Response -0.234

### Prompt What about GCTGTTAA ?
### Response 0.262

### Prompt What about CCCCATTC ?
### Response -0.266

### Prompt What about AACAACAT ?
### Response 0.385

### Prompt What about CTATGTAA ?
### Response 0.485

### Prompt What about GCAAAGAC ?
### Response -0.121

### Prompt What about ATGTGAAT ?
### Response 0.297

### Prompt What about GAGAATAC ?
### Response 0.242

### Prompt What about ATATGTGA ?
### Response 0.234

### Prompt What about TCAGGAGA ?
### Response -0.123

### Prompt What about CGTGTCGC ?
### Response 0.214

### Prompt What about CTTCAAAC ?
### Response -0.0259

### Prompt What about TATGTTAA ?
### Response 0.459

### Prompt What about CTATTCGC ?
### Response -0.117

### Prompt What about CTTCATTC ?
### Response -0.149

### Prompt What about GTATGTAA ?
### Response 0.477

### Prompt What about GCCAAGAC ?
### Response -0.161

### Prompt What about GCAGTTTA ?
### Response 0.00455

### Prompt What about ACCTAGCC ?
### Response -0.205

### Prompt What about CTATGTAC ?
### Response 0.401

### Prompt What about AGACTCGA ?
### Response -0.211

### Prompt What about CATGTGTC ?
### Response 0.152

### Prompt What about CATCGGTA ?
### Response -0.217

### Prompt What about CATTAGAG ?
### Response -0.127

### Prompt What about GTTGGCGA ?
### Response -0.0755

### Prompt What about AACAACAC ?
### Response 0.375

### Prompt What about GAAAGTTC ?
### Response -0.218

### Prompt What about CACAACAC ?
### Response 0.306

### Prompt What about ATACGGCA ?
### Response 0.103

### Prompt What about AATCGGTC ?
### Response -0.081

### Prompt What about ATATGTAG ?
### Response 0.3

### Prompt What about GTCTCCAC ?
### Response -0.178

### Prompt What about AATGTGTC ?
### Response 0.0899

### Prompt What about CCTGGGCG ?
### Response -0.173

### Prompt What about TATGTTCA ?
### Response 0.316
